Would you kindly list inhibition for each of these compounds?
ASSAYED TARGET: Peptidyl-prolyl cis-trans isomerase FKBP1A (Homo sapiens, UniProt P62942)
Sequence (P62942 whole entry): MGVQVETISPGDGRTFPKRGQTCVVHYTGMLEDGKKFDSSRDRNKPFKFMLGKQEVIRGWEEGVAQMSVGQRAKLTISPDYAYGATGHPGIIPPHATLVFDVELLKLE
EXPERIMENT DESCRIPTION: Percent inhibition towards recombinant FK506 binding protein 12 to determine the FKBP binding property at a concentration of 100 uM
I only need the number, in %, no unit after it.

Exercise: Identify measured inhibition associated with COc1ccc(CCCCOC(=O)[C@@H]2CCCCN2C(=O)C(=O)c2cc(OC)c(OC)c(OC)c2)cc1
Key: 90

Exercise: # return recorded inhibition for input COc1ccc(CCCCOC(=O)[C@@H]2CCCCN2C(=O)C(C)c2cc(OC)c(OC)c(OC)c2)cc1 (some centres undefined)
Key: 47

Exercise: Entry COc1ccc(CCCCOC(=O)[C@@H]2CCCCN2C(=O)Cc2cc(OC)c(OC)c(OC)c2)cc1 needs its inhibition filled in; supply it.
Key: 52

Exercise: Using the record for C=C(C(=O)N1CCCC[C@H]1C(=O)OCCCCc1ccc(OC)cc1)c1cc(OC)c(OC)c(OC)c1 , state its measured inhibition.
Key: 39

----------
ASSAYED TARGET: Peptidyl-prolyl cis-trans isomerase FKBP1A (Homo sapiens)
EXPERIMENT DESCRIPTION: Binding affinity towards recombinant FK506 binding protein 12 to determine the FKBP binding property of the compound
MEASURE: IC50 (µM)
Numbers only; they are read as µM.

Exercise: Give the measured IC50 for COc1ccc(CCCCOC(=O)[C@@H]2CCCCN2C(=O)C(=O)c2cc(OC)c(OC)c(OC)c2)cc1
Key: 16
